test: Plasma concentration in Sprague-Dawley rat at 30 mg/kg qd administered via oral gavage for 5 days measured 4 hrs post last dose; assay type: ADME, organism-based
Readout Type: concentration at 4 h (nM)
Please reply with the bare figure in nM and do not write the unit itself.

In plain terms, O=S(=O)(c1ccccc1)N(CC(F)(F)F)c1ccc(C(O)(C(F)(F)F)C(F)(F)F)cc1 has a documented concentration at 4 h of 2800

---

Measurement record for Cytochrome P450 2D6 (Homo sapiens, UniProt P10635); quantity recorded: IC50.
Please reply with the bare figure in µM and do not write the unit itself.

Readout IC50 for CC(C)[C@@H]1c2nn(-c3cccc(S(C)(=O)=O)c3)cc2CN1c1ccnc(C(F)(F)F)n1 , test system Cytochrome P450 2D6 (Homo sapiens, UniProt P10635), was 20.9

Readout IC50 for COc1ncc(F)c(N2Cc3cn(-c4cccc(S(C)(=O)=O)c4)nc3[C@H]2C(C)C)n1 , test system Cytochrome P450 2D6 (Homo sapiens, UniProt P10635), was 12.7

Readout IC50 for CC(C)[C@@H]1c2nn(-c3cccc(S(C)(=O)=O)c3)cc2CN1c1nccc(C(F)(F)F)n1 , test system Cytochrome P450 2D6 (Homo sapiens, UniProt P10635), was 25.7

Shift focus to the following entry.
Readout IC50 for COc1cc(N2Cc3cn(-c4cccc(S(C)(=O)=O)c4)nc3[C@H]2C(C)C)nc(C)n1 , test system Cytochrome P450 2D6 (Homo sapiens, UniProt P10635), was 5.37
